targetOrSystem: GPR139 (Homo sapiens)
Sequence (Q6DWJ6 1-353): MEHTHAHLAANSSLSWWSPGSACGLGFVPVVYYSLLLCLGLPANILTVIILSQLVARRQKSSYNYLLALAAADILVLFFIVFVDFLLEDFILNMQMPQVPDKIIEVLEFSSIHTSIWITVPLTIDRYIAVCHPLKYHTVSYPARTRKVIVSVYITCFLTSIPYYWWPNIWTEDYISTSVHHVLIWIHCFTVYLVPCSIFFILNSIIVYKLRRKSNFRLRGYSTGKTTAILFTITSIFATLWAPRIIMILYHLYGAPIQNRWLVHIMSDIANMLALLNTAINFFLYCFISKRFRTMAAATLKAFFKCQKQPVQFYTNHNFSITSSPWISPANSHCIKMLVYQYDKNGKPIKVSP
measurementNotes: GPR139 Agonist titration / agonist counterscreen assay (calcium detection, HEK-GPR139 cells)
Type: cell-based
Parameters: expressed in transfected cells; host or cells: HEK Aequorin cells, Maxcyte transient transfection
testConditions: GPR139 Agonist Activity; ligand efficiency
recordedEndpoint: Efficiency Ligand

{"columns": ["compound", "measValue"],
 "data": [
  ["COc1ccccc1CC1(C)NC(=O)N(CC(=O)NC(C)c2cccc(Cl)c2)C1=O (stereo not drawn)", 0.36],
  ["Cc1cccnc1CNC(=O)CCC1(Cc2cccc3ccccc23)CCC(=O)N1 (stereo not drawn)", 0.31],
  ["Cc1ccccc1NC(=O)CSC1=C(C#N)C(c2ccccc2C(F)(F)F)C2=C(CCCC2=O)N1 (stereo not drawn)", 0.28],
  ["O=C(CCc1nc2ccccc2n1-c1ccccc1)NCCc1ccccc1", 0.39],
  ["CCc1cccc(NC(=O)Cn2ncc3c2-c2ccccc2OC3)c1", 0.43],
  ["COc1ccc(CCNC(=O)c2cncc(-c3csc4ccccc34)c2)cc1", 0.34],
  ["CC(C)(C)OC(=O)NNC(=O)COCc1ccc(Cl)c(Cl)c1", 0.45],
  ["CC1=NNC(=O)C1CC(=O)N/N=C/c1cccc2ccccc12 (stereo not drawn)", 0.40],
  ["O=C(Cc1cccc2ccccc12)Nc1nnc(-c2cccs2)o1", 0.40]
]}

====

Recorded measurements of Lipophilic Efficiency (logD), one per entry
Test system: parental HEK cells
measurementNotes: HEK parental Agonist Counterscreen Assay (non-transfected cells)
Format: cell-based
testConditions: HEK Agonist Activity section
recordedEndpoint: Lipophilic Efficiency (logD)

{"columns": ["molecule", "targetOrSystem", "recordedEndpoint", "measValue"],
 "data": [
  ["Cc1ccc(Br)cc1S(=O)(=O)NCCC(=O)NCCc1sccc1C", "parental HEK cells", "Lipophilic Efficiency (logD)", 3.17],
  ["CC12C=CC3(CN(Cc4ccccc4)C(=O)C3C1C(=O)NCc1ccco1)O2 (stereo not drawn)", "parental HEK cells", "Lipophilic Efficiency (logD)", 3.51],
  ["C=C(CCC)c1ccc(CCC2=NNC(c3ccccc3)N2C)cc1 (stereo not drawn)", "parental HEK cells", "Lipophilic Efficiency (logD)", 2.82],
  ["NC1=NC(=O)/C(=C\\c2ccc(Cl)cc2Cl)S1", "parental HEK cells", "Lipophilic Efficiency (logD)", 1.78],
  ["C=C1C(CC(=C)C2Cc3ccc4ccccc4c3C2)=CC(c2ccccc2)=CC1C (stereo not drawn)", "parental HEK cells", "Lipophilic Efficiency (logD)", 2.62],
  ["Cc1cccnc1CNC(=O)CCC1(Cc2cccc3ccccc23)CCC(=O)N1 (stereo not drawn)", "parental HEK cells", "Lipophilic Efficiency (logD)", 1.92],
  ["COc1ccc(CCNC(=O)c2ccnc(N3CCN(Cc4ccc5c(c4)OCO5)CC3)c2)cc1", "parental HEK cells", "Lipophilic Efficiency (logD)", 1.42],
  ["Cc1[nH]c(=O)[nH]c(=O)c1/C=N\\NC(=O)CCc1ccc(OC(C)C)cc1", "parental HEK cells", "Lipophilic Efficiency (logD)", 3.76],
  ["CC(C(=O)NCCC1=CCCCC1)n1c(=O)c2cccn2c2ccccc21 (stereo not drawn)", "parental HEK cells", "Lipophilic Efficiency (logD)", 2.10]
]}

====

targetOrSystem: GPR139 (Homo sapiens, UniProt Q6DWJ6)
Sequence (Q6DWJ6 1-353): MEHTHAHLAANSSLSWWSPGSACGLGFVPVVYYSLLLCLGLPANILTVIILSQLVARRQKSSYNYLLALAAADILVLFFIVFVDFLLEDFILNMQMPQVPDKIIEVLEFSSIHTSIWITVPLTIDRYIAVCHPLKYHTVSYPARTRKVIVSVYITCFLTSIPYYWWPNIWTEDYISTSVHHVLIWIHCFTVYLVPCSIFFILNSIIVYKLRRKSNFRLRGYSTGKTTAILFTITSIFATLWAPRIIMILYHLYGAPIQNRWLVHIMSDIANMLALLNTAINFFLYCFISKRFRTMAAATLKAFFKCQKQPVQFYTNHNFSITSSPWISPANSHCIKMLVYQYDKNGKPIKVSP
measurementNotes: GPR139 Agonist titration / agonist counterscreen assay (calcium detection, HEK-GPR139 cells)
Type: cell-based
Set-up: expressed in transfected cells; host or cells: HEK Aequorin cells, Maxcyte transient transfection
testConditions: GPR139 Agonist Activity
recordedEndpoint: Lipophilic Efficiency (logP)

{"columns": ["molecule", "measValue"],
 "data": [
  ["O=C(NCCn1ccc2ccccc21)c1cccc(Cl)c1", 2.55],
  ["CN(Cc1ccc[nH]1)C(=O)CN1C(=O)NC2(CCc3ccccc3C2)C1=O (centres unmarked)", 3.64],
  ["Cc1ccc(CN2CC34C=CC(O3)C(C(=O)NCCC3=CCCCC3)C4C2=O)cc1 (centres unmarked)", 2.87],
  ["CCOC(=O)c1ccc(NC(=O)Cn2c(C)c(C=O)c3ccccc32)cc1", 2.28],
  ["COc1cc(-c2noc(CCC(=O)Nc3cccc(C)c3C)n2)cc(OC)c1OC", 2.20]
]}

====

targetOrSystem: UniProtKB Q6DWJ6
measurementNotes: GPR139 Antagonist titration assay (calcium detection, HEK-GPR139 cells, vs EC80 of S-JNJ-63533054)
testConditions: based on logP
Recorded measurements of GPR139 Antagonist Activity Lipophilic Efficiency (logP), one per entry
recordedEndpoint: GPR139 Antagonist Activity Lipophilic Efficiency (logP)

{"columns": ["molecule", "measValue"],
 "data": [
  ["CCCCCCOC(=S)SCC(=O)Nc1ccccc1", 0.57],
  ["CCOC(=O)c1c(C)nc2c(c1-c1ccc(F)cc1)C(=O)CC(c1ccc(Cl)cc1)C2 (stereo not drawn)", 0.44],
  ["CC(=O)N1N=C(c2ccc(C)cc2)CC1c1ccccc1F (stereo not drawn)", 1.00],
  ["COc1ccc(C(C(=O)NC(C)c2ccccc2)(c2ccccc2)c2ccccc2)cc1 (stereo not drawn)", "−1.1E+0"],
  ["COc1cccc(OC)c1C(=O)Oc1ccc2c(=O)c(-c3ccc(Cl)cc3)c(C(F)(F)F)oc2c1", "−130.5E−3"],
  ["Nc1cccc(C(=O)Nc2cc(O)n(-c3c(Cl)cc(Cl)cc3Cl)n2)c1", 0.55],
  ["Cc1cccc(NC(=O)CCC(=O)OCc2ccc(Br)cc2)c1", 1.45],
  ["COc1ccc(OC)c(NC2=C(Cl)C(=O)N(c3ccccc3C)C2=O)c1", 2.79],
  ["O=C(CCC(=O)OCc1ccc(Br)cc1)Nc1ccc(F)cc1", 1.62],
  ["Cc1cccc(-n2ccnc2SCC(=O)Nc2cccc(C)c2C)c1", 0.62],
  ["CCn1cc(Cl)c(C(=O)OCC23CCC4c5ccccc5OC(C)(CC2C)C4C3C)n1 (stereo not drawn)", 0.55],
  ["CCN1C(=O)c2cccc3c(S(=O)(=O)Nc4cccc(F)c4)ccc1c23", 2.23],
  ["COc1ccc(-c2noc(CN3CCCN(c4ccc(F)cc4)CC3)n2)c(OC)c1OC", 1.37],
  ["CC1=NN(Cc2ccc(Cl)cc2Cl)C(=O)C1", 2.61],
  ["Cc1cc(C)cc(-n2cnc3cc(C(=O)NCc4ccccc4Cl)ccc32)c1", "−63.1E−3"],
  ["CC1CCCC(NC(=O)c2cccc(NS(=O)(=O)c3ccc(Br)cc3)c2)C1C (stereo not drawn)", 0.36],
  ["CCCOC(=O)c1ccc(NC(=O)CSc2ccccc2)cc1", 1.07],
  ["COc1cc(C(=O)Nc2ccc(N3C(=O)c4ccc(Cl)cc4C3=O)c(C)c2)cc(OC)c1OC", 1.36],
  ["CCCc1sc(N2CCN(C(=O)c3ccccc3)CC2)nc1-c1ccccc1", "−866.9E−3"],
  ["Cc1cc(C(F)(F)F)nc(SCC(=O)Nc2cccc(C(F)(F)F)c2)c1C#N", "−233.9E−3"],
  ["O=C(CS(=O)(=O)c1ccccc1)Nc1ccc(Oc2ccccc2)cc1", 1.99]
]}

====

Test system: parental HEK cells
measurementNotes: HEK parental Agonist Counterscreen Assay (non-transfected cells)
Assay type: cell-based
testConditions: HEK Agonist Activity

{"columns": ["molecule", "Lipophilic Efficiency (logP)"],
 "data": [
  ["CCn1c(C)nc2cc(C(=O)NNC(=O)Cc3cccc4ccccc34)ccc21 [SR-01000041378]", 1.79],
  ["O=C(CCc1nc2ccccc2n1-c1ccccc1)NCCc1ccccc1 [SR-01000535824]", "−0.133"],
  ["COc1ccc(C2=NN(CC(=O)NCCCN(C)c3ccccc3)C(=O)CC2)cc1 [SR-01000145949]", 2.92],
  ["CC(NC(=O)Cn1cc(NC(=O)c2ccccc2F)cn1)c1ccccc1Cl (stereo not drawn) [SR-01000194602]", 1.58],
  ["COc1ccc(CCNC(=O)COc2ccc(Cl)cc2Cl)cc1 [SR-01000412367]", 1.11],
  ["COc1ccc(C2(C)NC(=O)N(CC(=O)NC3CCCC3)C2=O)cc1 (stereo not drawn) [SR-01000918718]", 3.62],
  ["COc1cccc(C(=O)NNC(=O)CCCOc2ccc(Cl)cc2Cl)c1 [SR-01000205482]", 1.52],
  ["Cc1ccc(C)c(C(=O)CCC(=O)NNC(=O)CSc2nc3ccccc3o2)c1 [SR-01000073202]", 1.04],
  ["CC(NC(=O)COC(=O)c1ccccc1C(F)(F)F)c1ccccc1 (stereo not drawn) [SR-01000037440]", 0.95],
  ["CCOc1ccc(C(=O)NCCn2ccc3ccccc32)cc1OCC [SR-01000907288]", 1.28],
  ["CC1CCC(NC(=O)CCC(=O)N2CCSc3ccccc32)CC1 (stereo not drawn) [SR-01000159110]", 2.25],
  ["COc1ccc(-c2nnn(CC(=O)NCCc3c[nH]c4ccccc34)n2)cc1OC [SR-01000339494]", 1.97],
  ["O=C(NCCc1ccc(Cl)cc1)c1ccc(N2CC3CC(C2)c2cccc(=O)n2C3)c(NS(=O)(=O)c2ccc3c(c2)OCCO3)c1 (stereo not drawn) [SR-01000583473]", 1.46],
  ["CCCn1c(CCC(=O)NCCc2ccc(OCC)cc2)nc2cccnc21 [SR-01000077930]", 1.76],
  ["CC(C)CCNC(=O)C1C2C=CC3(CN(Cc4ccccc4Cl)C(=O)C13)O2 (stereo not drawn) [SR-01000104567]", 2.34],
  ["CCc1cccc(NC(=O)Cn2ncc3c2-c2ccccc2OC3)c1 [SR-01000098944]", 1.42],
  ["CC(=O)c1cccc(C(C)(C)CC(=O)CNC(=O)c2ccccc2)c1 [SR-01000031674]", 2.46],
  ["CC1=CN=C(CCc2ccc(F)c3ccccc23)C1 [SR-01000525232]", 1.09]
]}
